System tested: Gonadotropin-releasing hormone receptor (Homo sapiens, UniProt P30968)
Sequence (P30968 whole entry): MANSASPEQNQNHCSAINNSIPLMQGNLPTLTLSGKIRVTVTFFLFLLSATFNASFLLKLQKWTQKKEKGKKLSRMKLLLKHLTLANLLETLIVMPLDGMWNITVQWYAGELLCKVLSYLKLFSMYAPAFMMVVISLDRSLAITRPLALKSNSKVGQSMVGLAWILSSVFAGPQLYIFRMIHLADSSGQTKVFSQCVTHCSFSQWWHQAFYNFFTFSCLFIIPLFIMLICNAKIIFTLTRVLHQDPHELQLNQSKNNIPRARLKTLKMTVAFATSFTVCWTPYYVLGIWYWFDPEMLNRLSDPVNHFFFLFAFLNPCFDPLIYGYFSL
Protocol: Displacement of [125I]D-Trp6-LHRH from human GnRH receptor expressed in CHO-K1 cell membranes incubated for 1 hr by competitive binding assay
Experimental endpoint: IC50 (nM)
Give just the number in nM; leave the unit off.

Example entries begin here.
| Smiles repr | Experimental endpoint | Unit abbrev | Quantitative result |
| --- | --- | --- | --- |
| Cc1c(N2CCN(Cc3cccc(S(C)(=O)=O)c3)CC2)c(=O)n(C[C@H](N)c2ccccc2)c(=O)n1Cc1c(F)cccc1C(F)(F)F | IC50 | nM | 0.38 |
| Cc1c(N2CCN(Cc3cccc4nonc34)CC2)c(=O)n(C[C@H](N)c2ccccc2)c(=O)n1Cc1c(F)cccc1C(F)(F)F | IC50 | nM | 0.6 |
| Cc1c(N2CCN(Cc3cccnc3)CC2)c(=O)n(C[C@H](N)c2ccccc2)c(=O)n1Cc1c(F)cccc1C(F)(F)F | IC50 | nM | 2 |
| Cc1ccc(CN2CCN(c3c(C)n(Cc4c(F)cccc4C(F)(F)F)c(=O)n(C[C@H](N)c4ccccc4)c3=O)CC2)cn1 | IC50 | nM | 14.2 |

Proceeding to the next molecule to report its IC50.
Hi! What's the reported IC50 for Cc1c(N2CCN(Cc3cocn3)CC2)c(=O)n(C[C@H](N)c2ccccc2)c(=O)n1Cc1c(F)cccc1C(F)(F)F on Gonadotropin-releasing hormone receptor (Homo sapiens, UniProt P30968)?
7.01
